assay.notes: Pharmacokinetics: AZD2811 whole blood concentrations and urine excretion
Format: in vivo, human
run.parameters: human, whole blood, intravenous, 51 mg, whole blood; Cohort 4: 51 mg, Days 1 and 4, 28-day cycles, no G-CSF, N = 3; read-out: Median tmax (range)
result.type: Tmax (h)
Kindly provide the numeric value in h only, without the unit symbol.

Record summary for CCN(CCO)CCCOc1ccc2c(Nc3cc(CC(=O)Nc4cccc(F)c4)n[nH]3)ncnc2c1 [AZD2811] : reported Tmax = 78

###

assay.notes: Pharmacokinetics: AZD2811 whole blood concentrations and urine excretion
Format: in vivo, human
run.parameters: human, whole blood, intravenous, 600 mg, whole blood; Cohort 11: 600 mg, Day 1, 21-day cycles, mandatory G-CSF, N = 3; read-out: Median tmax (range)
result.type: Tmax (h)
Return type: number; implicit unit h.

For CCN(CCO)CCCOc1ccc2c(Nc3cc(CC(=O)Nc4cccc(F)c4)n[nH]3)ncnc2c1 [AZD2811] the compound record lists Tmax as 6

###

assay.notes: Pharmacokinetics: AZD2811 whole blood concentrations and urine excretion
Assay type: in vivo, human
run.parameters: human, whole blood, intravenous, 25 mg, whole blood; Cohort 2: 25 mg, Days 1 and 4, 28-day cycles, no G-CSF, N = 3; read-out: Median tmax (range)
result.type: Tmax (h)
All answers are understood in h, so give the number only.

Notebook: CCN(CCO)CCCOc1ccc2c(Nc3cc(CC(=O)Nc4cccc(F)c4)n[nH]3)ncnc2c1 , Tmax read as 75

###

assay.notes: Pharmacokinetics: AZD2811 whole blood concentrations and urine excretion
Format: in vivo, human
run.parameters: human, whole blood, intravenous, 500 mg, whole blood; Cohort 12: 500 mg, Day 1, 21-day cycles, mandatory G-CSF, N = 6; read-out: Median tmax (range)
result.type: Tmax (h)
Could you give me the number in h? Just the number is fine.

// sample CCN(CCO)CCCOc1ccc2c(Nc3cc(CC(=O)Nc4cccc(F)c4)n[nH]3)ncnc2c1 , its Tmax was 6

All values here come from paper PMC10147685.
